- system: pooled human IgG
measurement label: Enzyme Activity Endpoint Assay (purified): IgG (ng/µL)

- protein: "PRT-77 (protein) MANQEIRYSEVTPYHVTSVWTKGVTPPTNFTQGEDVFHAPYVANQGWYDITKTFNGKDNLLCGAATAGNMLHWWFDQNKEEIERYLKKHPEKQKIMFGDQELLDVRKVINTKDDQKNSELFNYFRDKAFPGLSARRLGVMPDLVLDMFINGYYLNVGKTQTTDVNRTYQEKDKRGGIFDAVFTRGDQSKLLTSRHDFKEKNLKEISDLIKQELTEGKALGLSHTYANVRINHVINLWGADFDSNGNLEAIYVTDSDSNASIGMKKYFVGVNSAGKVAISAKEIEEDNIGAQVLGLFTLSTGQDIWNQTN"
  endpoint value: 14
- protein: "PRT-147 (protein) MANQEIRYSEVTPYHIKIVWTKGVTPPANFTQGEDVFHAPYVANQGWYDITKTFNGKDDLLCGAATAGNMLHWWFDQNKDQIKRYLEEHPEKQKINFNGEQMFDVKEAIDTKNHQLDSKLFEYFKEKAFPYLSTKHLGVFPDHVIDMFINGYRLSLTNHGPTPVKEGSKDPRGGIFDAVFTRGDQSKLLTSRHDFKEKTLNDISQLIKQELQSGKALGLSHTYANVRINHVINLWGADFDAEGNLEAIYVTDSDSNASIGMKKYFVGKNSAGKVAISAKEIKEDNIGAQVLGLFTLSTGQDSWNQTN"
  endpoint value: 0
